Where these numbers come from: the supplement of paper PMC7877785

A collection of sequences and their measured self-splicing fitness (ln)
experiment: self-splicing fitness, log relative to wild type (ln ratio); higher = more splicing; Tetrahymena group I intron in knt gene, E. coli kanamycin selection, DiMSum; sequences stand for … in CUCUCU…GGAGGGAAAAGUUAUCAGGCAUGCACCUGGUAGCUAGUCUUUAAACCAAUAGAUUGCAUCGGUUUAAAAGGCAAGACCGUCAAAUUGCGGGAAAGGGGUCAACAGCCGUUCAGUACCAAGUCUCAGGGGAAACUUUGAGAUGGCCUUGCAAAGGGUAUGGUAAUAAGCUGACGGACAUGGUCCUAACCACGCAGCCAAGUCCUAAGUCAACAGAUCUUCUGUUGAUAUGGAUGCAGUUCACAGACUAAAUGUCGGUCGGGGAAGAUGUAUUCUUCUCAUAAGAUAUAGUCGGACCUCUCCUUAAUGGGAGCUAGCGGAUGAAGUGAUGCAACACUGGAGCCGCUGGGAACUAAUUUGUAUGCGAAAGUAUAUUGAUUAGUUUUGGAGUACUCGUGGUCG; settings: 30 °C;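 further: selection with 25 µg/mL kanamycin versus none on LB agar overnight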
Parameter: self-splicing fitness (ln)

          sequence_code  numeric_readout
0  GCUUAGCAAUAUUACGGAGC            -2.97
1  CGACAGCAAUAUUACGUGUA               -3
2  GCGCAGCAAUAUUACGAGAC            -3.09
3  UUAAAGCAAUAUUACGUGAG           -0.984
4  CAUGAGCAAUAUUACGGUCA            -2.96
